Biological target: QPCTL (Homo sapiens (Human))
Sequence (Q9NXS2 whole entry): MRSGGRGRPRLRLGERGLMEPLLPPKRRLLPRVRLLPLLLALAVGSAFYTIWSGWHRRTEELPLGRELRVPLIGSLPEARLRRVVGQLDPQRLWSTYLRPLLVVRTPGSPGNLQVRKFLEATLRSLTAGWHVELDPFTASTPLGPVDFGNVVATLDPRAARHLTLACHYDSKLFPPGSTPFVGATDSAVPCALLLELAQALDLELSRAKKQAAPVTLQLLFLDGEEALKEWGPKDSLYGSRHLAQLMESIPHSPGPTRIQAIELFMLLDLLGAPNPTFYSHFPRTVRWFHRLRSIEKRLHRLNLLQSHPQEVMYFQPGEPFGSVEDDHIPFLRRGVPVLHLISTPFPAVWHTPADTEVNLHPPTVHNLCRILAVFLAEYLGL
Assay: Assay A: biochemical QPCTL activity assay (MALDI-TOF MS)
Conditions: compounds of the invention, Table 2; read-out: Inhibition of QPCTL: IC50
measurementLabel: IC50 (nM)

{"molecule": "Cn1cnnc1C1(F)CCN(c2c(C#N)cccc2-c2cnc3nc(C(C)(C)C)cn3c2)CC1 [compound 71]", "unitAbbrev": "nM", "recordedMeasurement": 2}
{"molecule": "Cn1cnnc1C1(F)CCN(c2c(C#N)cccc2-c2cnc(=O)n(Cc3ccccc3)c2)CC1 [compound 59]", "unitAbbrev": "nM", "recordedMeasurement": 2}
{"molecule": "Cn1cnnc1C1CCN(c2c(C#N)cccc2-c2cnc3nonc3c2)CC1 [compound 7]", "unitAbbrev": "nM", "recordedMeasurement": 2}
